Below are GI50 values recorded for HCT-15.
Result Type: GI50

* C1=C\SS/C=C\SS/1 | 14.4 µM
* CCCCCCCCC(C)CCCCCCCCC(=O)OCC(COP(=O)([O-])OCC[N+](C)(C)C)OC(=O)CCCCCCCCC(C)CCCCCCCC (stereo not drawn) | > 100 µM
* O=C(O)c1ccc(/N=N/c2cc(S(=O)(=O)O)c3cccnc3c2O)cc1 | > 100 µM

* * *

System: CCRF-CEM
Test: NCI tumour cell line growth inhibition, 48 h
The source made the active and inactive calls. Cut-off read from the data, not from the text of the source: active = GI50 up to about 1.1 µM and inactive = higher.
Labels: active, inactive

- Cc1[nH]c2ccccc2c1C1Cc2ccccc2N1C(=O)/C=C/C(=O)O (stereo not given): inactive
- OC1c2ccccc2C2C(O)c3ccccc3C12 (stereo not given): inactive
- O=C1/C(=C\c2ccccc2)CN(C(=O)CCN2CCCCC2)C/C1=C/c1ccccc1: active
- Cc1ccc2c(c1)[nH]c(=S)n2/C=C1\C(=O)Oc2ccccc2C1=O: inactive
- COC(=O)C(Cc1ccccc1)NS(=O)(=O)c1ccc(-c2c3nc(c(-c4ccc(S(=O)(=O)NC(Cc5ccccc5)C(=O)OC)cc4)c4ccc([nH]4)c(-c4ccc(S(=O)(=O)NC(Cc5ccccc5)C(=O)OC)cc4)c4nc(c(-c5ccc(S(=O)(=O)NC(Cc6ccccc6)C(=O)OC)cc5)c5ccc2[nH]5)C=C4)C=C3)cc1 (stereo not given): inactive
- O=C(N=C1N(c2ccccc2)C(=O)C(=O)N1c1ccccc1)c1ccccc1: inactive
- CCN(CC)CCCNc1nncc2c(C)c3[nH]c4ccc(OC)cc4c3cc12: active
- COc1cc(C)c(C2NC(=O)c3ccccc3N2)cc1C (stereo not given): active
- CN(C)c1ccc(/C=C/c2ccnc3ccccc23)cc1: inactive
- Cc1ccc(C(=O)Cc2nc3ncccc3[nH]c2=O)cc1: inactive

* * *

Test system: ACHN
Assay: NCI tumour cell line growth inhibition, 48 h
Activity calls are given as the source filed them. No stated cut-off is given here; in the data, active = GI50 up to about 1.1 µM and inactive = higher.
Labels: 1 (active), 0 (inactive)

* COc1cc(C2SCC(=O)N2c2ccc(-n3c(-c4ccccc4)nc4ccccc4c3=O)cc2)cc(OC)c1OC (stereo not drawn) | 0
* COc1ccc([N+](=O)[O-])c2c(NCCCN(C)C)c3ccccc3nc12 | 1
* CN1CCN(CCSC2Cc3cc(Cl)ccc3Sc3ccccc32)CC1 (stereo not drawn) | 0
* OCC1OC(c2cccc3cc(O)c(O)cc23)CC1O (stereo not drawn) | 0
* CC1(C)COC(c2ccccc2-c2ccccc2)=N1 | 0
* Nc1ccccc1-c1noc(=O)[nH]1 | 0
* O=[N+]([O-])c1ccc(/C=N/CC2CCCN3CCCCC23)cc1 (stereo not drawn) | 0
* c1ccc(Sc2nc(Sc3ccccc3)nc(Sc3ccccc3)n2)cc1 | 0
* COC(=O)C1(N2CCOCC2)CCC([C@@H](c2ccccc2)C(C)[N+](=O)[O-])C1 (stereo partly drawn) | 0
* CN(C)c1ccc(/C=N\NC(=O)CSCC(=O)N/N=C/c2ccc(N(C)C)cc2)cc1 | 0
* COc1cc(/C=N/N=C(\N)NO)c([N+](=O)[O-])cc1OC | 0
* CCC1(N=[N+]=[N-])C(=O)c2ccccc2N(c2ccccc2)C1=O (stereo not drawn) | 0
* Cc1cccc(-c2cc(O)c3ccc(C)nc3n2)c1 | 1
* CSc1ncc2c(C#N)c3[nH]c4ccccc4n3c(=O)c2n1 | 0
* OCC(O)C(O)C(O)C1SC(c2ccccc2)=NN1c1ccccc1 (stereo not drawn) | 0
* N=c1[nH]cnc2c1nnn2C1C=CC(COS(N)(=O)=O)C1 (stereo not drawn) | 0
* Cc1[nH]c2ccccc2c1C1Cc2ccccc2N1C(=O)/C=C/C(=O)O (stereo not drawn) | 0
* CCOP(=O)(OCC)/C(C#N)=C/c1cnc(-c2ccccc2)[nH]1 | 0
* O=C(c1ccco1)N(C(=S)N1CCN(c2ccccn2)CC1)c1ccccc1 | 0
* O=C1c2cccc(NCCCNCCO)c2C(=O)c2cccc(NCCCNCCO)c21 | 0
* COc1cc2ccc(CC(=O)O)cc2cc1OC | 0
* O=C(Nc1cccc2c1[nH]c1c(-c3ccccc3)nccc12)c1ccccc1[N+](=O)[O-] | 0
* CCC(C(=O)O)c1ccc(OCc2ccccc2)cc1 (stereo not drawn) | 0

* * *

System: U-251
Assay: NCI tumour cell line growth inhibition, 48 h
Activity calls are given as the source filed them. Cut-off read from the data, not from the text of the source: active = GI50 up to about 1.1 µM and inactive = higher.
Classes used: true (active), false (inactive)

- Nc1ccccc1-c1noc(=O)[nH]1: false
- N#Cc1cc(-c2nc3c(F)cccc3s2)ccc1N: false
- Cn1c2c(c3ccccc31)CCN1C(=O)C34CCCC3CC21S4 (stereo not given): false
- O=[N+]([O-])c1ccc2c3ccccc3[s+]([O-])c2c1 (stereo not given): false
- CN(C)CCC(=O)N1C/C(=C\c2ccc(Cl)c(Cl)c2)C(=O)/C(=C/c2ccc(Cl)c(Cl)c2)C1: true
- CC1CC[C@@]2(OC1)OC1CC3C4CCC5C[C@@H](OC6OC(CO)C(OC7OC(CO)C(O)C(OC8OC(CO)C(O)C(OC9OC(CO)C(O)C(O)C9O)C8O)C7OC7OC(CO)C(O)C(O)C7O)C(O)C6O)[C@H](O)C[C@]5(C)C4CC[C@]3(C)C1[C@@H]2C (stereo not given in full): false
- COC(=O)C(CNC(=O)/C=C/c1ccc(OC)c(OC)c1)NC(=O)/C=C/c1ccc(OC)c(OC)c1 (stereo not given): false
- O=C1NC(O)c2ccccc2O1 (stereo not given): false
- O=C(/C=C/c1ccc(O)c(O)c1)OCC(OC(=O)/C=C/c1ccc(O)c(O)c1)C(=O)O (stereo not given): false
- N#CN1C2CCC1CC(=O)C2: false
- COc1nc2ccc(Cl)c(C(O)c3ccccc3)c2nc1OC (stereo not given): false
- CCC(C(=O)O)c1ccc(OCc2ccccc2)cc1 (stereo not given): false
- CC(=O)OCC1=C2C(OC(=O)C(C)C)CC3(COC(C)=O)OC3/C=C\C3(C)OC3C2OC1=O (stereo not given): false
- CN(C)c1snc2c1c(=O)n(C)c(=O)n2C: false
- O=C(O)CCC1COc2ccccc2O1 (stereo not given): false
- O=C1/C(=C\c2ccccc2)CN(C(=O)CCN2CCCCC2)C/C1=C/c1ccccc1: true
- COc1cc(C2S/C(=C/c3ccccc3)C(=O)N2c2cc(Cl)ccc2Cl)cc(OC)c1OC (stereo not given): false
- CCOC(=O)c1cc2c([nH]1)C(=O)CC1=C2CCN1Cc1ccccc1: false
- COc1ccc(-c2nc3c(C(=O)NCCN(C)C)cccc3c3ccccc23)cc1: false
- Cc1ccc(O)cc1.Cc1cccc(O)c1.Cc1ccccc1O [CRESOL]: false
- COc1ccc2c(c1)CC[C@@H]1C2CC[C@]2(C)OC(=O)CCC12 (stereo not given in full): false
- Oc1nc(S)nc(SCc2c(Cl)c(Cl)c(Cl)c(Cl)c2Cl)n1: false
- CN(C)/N=N/c1[nH]cnc1C(N)=O [DACARBAZINE]: false
- C[C@H](OCc1ccccc1)C(=O)N1CCS(=O)(=O)N2CCC[C@@H]2C1=O: false
- COc1cccc(CC2C(=O)N/C(=N\C(C)=O)N2C)c1OC(C)=O (stereo not given): false

* * *

Test system: UACC-257
Assay: NCI tumour cell line growth inhibition, 48 h
The source made the active and inactive calls. No stated cut-off is given here; in the data, active = GI50 up to about 1.1 µM and inactive = higher.
Outcomes: y = active, n = inactive

• [N-]=[N+]=C1CNC(=O)NC1=O = n
• O=C(c1cccc2cc(O)ccc12)c1cn(CCN2CCOCC2)c2ccccc12 = n
• COc1ccc([N+](=O)[O-])c2c(NCCCN(C)C)c3ccccc3nc12 = y
• CC(=O)N(C(=O)CC(=O)NNCc1ccccc1Cl)c1ccc(Cl)cc1 = n
• CC1(C)CC[C@]2(C(=O)O)[C@H](O)C[C@]3(C)C(=CC[C@@H]4[C@@]5(C)CC[C@H](OC6OC(C(=O)O)C(O)C(O)C6O)C(C)(C)[C@@H]5CC[C@]43C)[C@@H]2C1 (stereo partly drawn) = n
• C(=N\CC/N=C/c1cccc2ccccc12)/c1cccc2ccccc12 = n
• Cc1c(Cl)c(C)c(Cl)c(O)c1Cl = n
• COc1ccc(/C=N/n2c(Cc3ccc(Cl)cc3)n[nH]c2=O)cc1 = n
• CCN(CC)CCCCC1CCN(CC(=O)N2c3cc(Cl)ccc3NC(=O)CC2C)CC1 (stereo not drawn) = n
• Cc1ccc(O)cc1.Cc1cccc(O)c1.Cc1ccccc1O = n
• Cc1nc(C)c(N2CCN(C(=O)O)CC2)c(O)n1 = n
• c1ccc(Sc2nc(Sc3ccccc3)nc(Sc3ccccc3)n2)cc1 = n
• COc1ccc(NC(=O)/C(Cc2cc(=O)oc3cc(O)ccc23)=N\NC(C)(C)C)c(OC)c1 = n
• CCN1CC2(CO)CCC(OC)C34C5CC6C(OC)CC(O)(C5C6OC)C(O)(C(OC)C23)C14 (stereo not drawn) = n
• O=C(/C=C/c1ccc(O)c(O)c1)OCC(OC(=O)/C=C/c1ccc(O)c(O)c1)C(=O)O (stereo not drawn) = n
• O=C(Nc1ccc2[nH]c(C(=O)N3CC(CCl)c4c3cc([N+](=O)[O-])c3ccccc43)cc2c1)c1cc2ccccc2o1 (stereo not drawn) = n
• ClC(Cl)[Si]12OCCN(CCO1)CCO2 = n
• O[C@H]1[C@H](O)[C@@H](O)CN2CC[C@H](O)[C@H]12 = n
• FC(F)(F)c1ccccc1C1SCc2nc3ccccc3n21 (stereo not drawn) = n
• FC(F)(F)c1cccc(-c2nc3ccccc3c3c2[C@@]2(N4CCCC4)CCCC[C@@H]32)c1 = n
• S=C1NN=C2C(=C3CCCC4C5CCCCC5N2C34)N1 (stereo not drawn) = n
• COC(=O)C1(N2CCOCC2)CCC([C@@H](c2ccccc2)C(C)[N+](=O)[O-])C1 (stereo partly drawn) = n
• CC(=O)C1=CCC2c3[nH]c4ccccc4c3CCN2C1 (stereo not drawn) = n
• ClC(Cl)(Cl)C1CCOC1n1nnc2ccccc21 (stereo not drawn) = n
• OC1C=C2C3CN(Cc4cc5c(cc43)OCO5)[C@H]2C[C@@H]1O (stereo partly drawn) = n
• NC1=NN(c2ccccc2)C(=O)C1C(=O)C(=O)Nc1ccccc1 (stereo not drawn) = n
• O=C(O)c1ccc(/N=N/c2cc(S(=O)(=O)O)c3cccnc3c2O)cc1 = n
• Cc1cc(C)cc(Nc2nnc3n2S(=O)(=O)c2cc(C#N)c(Cl)cc2S3)c1 = n
• CN(Cc1cnc2c(n1)C(N)=NN(N)N2)c1ccc(C(=O)NC(CCP(=O)(O)O)C(=O)O)cc1 (stereo not drawn) = n
• Cc1cc(S(=O)(=O)Nc2nnc3cnc4ccccc4n23)c(S)cc1Cl = n
• CC(=O)OC1c2ccccc2CC2(OC(C)=O)c3ccccc3C12 (stereo not drawn) = n
• O=c1[nH][nH]c(=O)n1CCCCCCn1c(=O)[nH][nH]c1=O = n
• CN(C)c1ccc(/C=N\NC(=O)CSCC(=O)N/N=C/c2ccc(N(C)C)cc2)cc1 = n
• C=CCCC1(C)CCCNC1=S (stereo not drawn) = n
• Oc1ccccc1/C=N/c1ccccc1/N=C/c1ccccc1O = n
• Cc1cc2c(cc1C)C(=O)/C(=N/Nc1ccc(F)cc1)CCO2 = n
• CCOC(=O)C1(C#N)CC1 = n
• Nc1ccc(Oc2ccc(C34CC5CC(C3)CC(c3ccc(Oc6ccc(N)cc6C(F)(F)F)cc3)(C5)C4)cc2)c(C(F)(F)F)c1 = n
• N#Cc1c(-c2ccco2)c2c(n(C3OC(CO)C(O)C(O)C3O)c1=S)CCCC2 (stereo not drawn) = n
• CN(C)c1ccc(/C=C/c2ccnc3ccccc23)cc1 = n
• S=c1c2cn[nH]c2nc2scc(-c3ccc(Cl)cc3)n12 = n
• CCOC(=O)C1=C(N)N2C(=N[C@H]3CCCC[C@@H]32)N=C1 = n
• Cc1ccc(C)c2c1C/C(=C\c1ccccc1C(=O)O)C2=O = n
